Reference source for all entries: patent US6495699B2

Test: Determination of inhibitor concentration in plasma after oral dosing
Assay type: in vivo, Sprague Dawley rats
Conditions: Sprague-Dawley, rat plasma, dose 50 mg/kg, vehicle B (60% aq. propylene glycol)
Below is a list of entries, each paired with its recorded AUC value.
measureName: AUC (ng·h/mL)

{"compound": "CNC(=O)[C@@H](NC(=O)[C@@H](CC(=O)O)c1ccn(-c2ccc(F)cc2)c1)C(C)(C)C [Example 14(a)]", "valueMeasured": 1570}
{"compound": "CNC(=O)[C@@H](NC(=O)[C@@H](CC(=O)O)n1ccc(-c2ccc(-c3ccc(C#N)cc3)cc2)c1)C(C)(C)C [Example 5(c)]", "valueMeasured": 1220}
{"compound": "CC(C)(C)[C@H](NC(=O)[C@@H](CC(=O)O)n1ccc(-c2ccc(-c3ccncc3)cc2)c1)C(=O)Nc1ccncc1 [Example 7(b)]", "valueMeasured": 400}
{"compound": "CNC(=O)[C@@H](NC(=O)[C@@H](CC(=O)O)n1ccc(-c2ccc(C#N)cc2)c1)C(C)(C)C [Example 1(m)]", "valueMeasured": 967}

* * *

Biological target: fibroblast collagenase-1 catalytic domain (HFC) (Homo sapiens)
Construct: The catalytic domain of human collagenase-1 was expressed as a fusion protein with ubiquitin in E. coli; ubiquitin (cleaved yes); made in house; host or cells: E. coli
Sequence (P03956 100-269 limits assumed): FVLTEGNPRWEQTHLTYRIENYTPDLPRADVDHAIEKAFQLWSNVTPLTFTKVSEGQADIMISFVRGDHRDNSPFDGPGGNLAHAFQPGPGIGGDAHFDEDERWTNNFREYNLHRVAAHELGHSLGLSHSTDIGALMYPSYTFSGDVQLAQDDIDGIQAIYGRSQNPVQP
Test: Fluorometric MCA-peptide hydrolysis assay, fibroblast collagenase-1 (HFC)
Type: biochemical
Settings: apparent Ki; 10 μM MCA peptide substrate, 37° C., pH 7.5; read-out: HFC (Ki,app)
Counter-ions that a name gives are not always drawn.
Binary label based on Ki with cut-off 2 µM: below gives criterion met, not below gives criterion not met.

{"molecule": "COC(=O)c1ccc(NC(=O)[C@H](CC(C)C)NC(=O)[C@@H](CC(=O)O)c2cccs2)cc1 [Example 17(a)]", "assignedClass": "criterion not met"}
{"molecule": "O=C(O)C[C@H](C(=O)N[C@@H]1c2ccccc2C[C@H]1O)n1ccc(-c2ccc(-c3ccncc3)cc2)c1 [Example 6(a)]", "assignedClass": "criterion not met"}
{"molecule": "CC(C)(C)[C@@H](CO)NC(=O)[C@@H](CC(=O)NO)n1cnc(-c2ccc(-c3ccccc3)cc2)c1 [Example 19(c)]", "assignedClass": "criterion not met"}
{"molecule": "O=C(O)C[C@H](C(=O)N[C@H]1Cc2cn(c3ccccc23)CCCCCCNC1=O)n1cccc1 [Example 1(o)]", "assignedClass": "criterion not met"}
{"molecule": "CC(C)(C)[C@@H](CO)NC(=O)C(CC(=O)NO)n1cnc(-c2ccc(-c3ccccc3)cc2)c1 (mixture of isomers) [Example 19(b)]", "assignedClass": "criterion not met"}
{"molecule": "CC(C)(C)[C@H](NC(=O)[C@@H](CC(=O)O)n1ccc(-c2ccc(-c3ccncc3)cc2)c1)C(=O)Nc1ccncc1 [Example 7(b)]", "assignedClass": "criterion met"}
{"molecule": "CC(C)(C)[C@H](NC(=O)[C@@H](CC(=O)O)n1ccc(-c2ccc(-c3ccc(C(N)=O)cc3)cc2)c1)C(=O)Nc1ccncc1 [Example 5(f)]", "assignedClass": "criterion met"}
{"molecule": "CNC(=O)[C@@H](NC(=O)[C@@H](CC(=O)O)n1ccc(-c2ccc(-c3ccc(C(N)=O)cc3)cc2)c1)C(C)(C)C [Example 5(e)]", "assignedClass": "criterion met"}
{"molecule": "O=C(CC(C(=O)N[C@H]1CCCCNC1=O)n1cnc(-c2ccc(-c3ccccc3)cc2)c1)NO (mixture of isomers) [Example 19(a)]", "assignedClass": "criterion not met"}
{"molecule": "CNC(=O)[C@@H](NC(=O)C(CC(=O)NO)n1cnc(-c2ccc(-c3ccccc3)cc2)c1)C(C)(C)C (mixture of isomers) [Example 19(e)]", "assignedClass": "criterion met"}
{"molecule": "CNC(=O)[C@@H](NC(=O)[C@@H](CC(=O)O)n1ccc(-c2ccc(-c3ccncc3)cc2)c1)C(C)(C)C [Example 6(b)]", "assignedClass": "criterion not met"}
{"molecule": "CNC(=O)[C@@H](NC(=O)[C@@H](CC(=O)O)n1ccc(-c2ccncc2)c1)C(C)(C)C [Example 1(d)]", "assignedClass": "criterion not met"}
{"molecule": "CC(C)(C)[C@@H](CO)NC(=O)[C@H](CC(=O)NO)n1cnc(-c2ccc(-c3ccccc3)cc2)c1 [Example 19(d)]", "assignedClass": "criterion not met"}
{"molecule": "O=C(O)C[C@H](C(=O)N[C@H]1Cc2cn(c3ccccc23)CCOCCNC1=O)n1ccc(-c2ccc(-c3ccncc3)cc2)c1 [Example 7(a)]", "assignedClass": "criterion met"}
{"molecule": "CNC(=O)[C@@H](NC(=O)[C@@H](CC(=O)O)n1ccc(-c2ccc(-c3ccc(C#N)cc3)cc2)c1)C(C)(C)C [Example 5(c)]", "assignedClass": "criterion met"}
{"molecule": "O=C(O)C[C@H](C(=O)N[C@H](CO)Cc1ccccc1)c1ccn(-c2ccc(-c3ccccc3)cc2)c1 [Example 13]", "assignedClass": "criterion not met"}
{"molecule": "CC(C)(C)[C@H](NC(=O)[C@@H](CC(=O)O)n1ccc(-c2ccc(-c3ccc(C#N)cc3)cc2)c1)C(=O)Nc1ccncc1 [Example 5(d), Formate Salt]", "assignedClass": "criterion not met"}
{"molecule": "COC(=O)c1ccc(NC(=O)[C@H](CC(C)C)NC(=O)[C@@H](CC(=O)O)c2ccsc2)cc1 [Example 17(b)]", "assignedClass": "criterion not met"}
